- Experimental System: Gamma-secretase
- Protocol Description: Inhibition of gamma-secretase (unknown origin) assessed as reduction in amyloid beta (1 to 42) production after 60 mins by cell based AlphaLisa assay
Reported Metric: EC50 (nM)
Answers are plain numbers, in nM.

// worked examples, EC50 included
structure_smiles=CNc1nc(N[C@@H]2[C@@H]3CC[C@H]2CN(c2cc(C)ncn2)C3)nc2c1C(C)(C)CN2C1CC(F)(F)C1 reported_metric=EC50 reported_measurement=36
structure_smiles=CNc1nc(N[C@@H]2[C@@H]3CC[C@H]2CN(c2cc(C)ncn2)C3)nc2c1C(C)(C)CN2c1ccc(F)cc1 reported_metric=EC50 reported_measurement=14
structure_smiles=CNc1nc(N[C@@H]2[C@@H]3CC[C@H]2CN(c2ccnnc2)C3)nc2c1C(C)(C)CN2c1ccc(F)cc1 reported_metric=EC50 reported_measurement=19
structure_smiles=CNc1nc(N[C@@H]2[C@@H]3CC[C@H]2CN(c2cc(C)ncn2)C3)nc2c1C(C)(C)CCN2c1ccc(F)cc1 reported_metric=EC50 reported_measurement=35
structure_smiles=CNc1nc(N[C@@H]2[C@@H]3CC[C@H]2CN(c2nnc(C)o2)C3)nc2c1C(C)(C)CN2c1ccc(F)cc1 reported_metric=EC50 reported_measurement=34

Quick note, EC50 for CNc1nc(N[C@@H]2[C@@H]3CC[C@H]2CN(c2cc(C)ncn2)C3)nc2c1C(C)(C)CN2C12CC(C(F)(F)F)(C1)C2 landed at 111

Numbers sourced from ChEMBL document CHEMBL4251689.
